Origin of the recorded values: PubChem BioAssay

# procedureDetails: COS7 lysate on small-molecule microarray, probe aHis, 635 nm (AID 1123);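 further: z-score combines 667nm fluorescence intensity with signal-to-noise per printed compound spot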
# conditionDetails: COS7 cell lysate, fluorescence, higher = more signal
measuredEndpoint: composite z-score
Give bare numbers.

For orientation, consider the following solved cases.
>  <compound>
O=C1O[C@@H](c2ccccc2)[C@@H](c2ccccc2)N2[C@@H](c3ccc(O)cc3)[C@]3(C(=O)Nc4ccccc43)[C@@H](C(=O)N3CCCCCCC3)[C@H]12

>  <composite z-score>
3.78

$$$$
>  <compound>
CC(c1ccccc1)C(O)C1C=CC2C(=O)N(Cc3ccccc3)C(=O)C2N1n1cnnc1 (stereo unspecified)

>  <composite z-score>
1.06

$$$$
>  <compound>
O=C1O[C@H](c2ccccc2)[C@H](c2ccccc2)N2[C@H]1[C@@H](C(=O)Nc1nc3ccccc3s1)[C@]1(C(=O)Nc3ccc(C#CC4=CCCCC4)cc31)[C@H]2c1ccc(OCCO)cc1

>  <composite z-score>
2.68

$$$$
>  <compound>
CCOC(=O)C1=CC[C@@H](c2cccc(Cl)c2)N(S(=O)(=O)c2ccc(C)cc2)[C@H]1c1ccc(C#N)cc1

>  <composite z-score>
2.86

$$$$
>  <compound>
O=C1[C@H]2C=C(Br)[C@H](C[C@@H]2OCCOCCO)[C@@]12CO2

>  <composite z-score>
-0.146

$$$$

// batch mode: one composite z-score value per listed entry
1. [N-]=[N+]=Nc1ccccc1[C@@H]1OC(c2ccc(OCCCO)cc2)=N[C@]1(CCS(=O)(=O)c1ccccc1)C(=O)O
2. CCN(CC)c1ccc(N2CC=CC34O[C@@H]5C=CCCOC(=O)C5[C@H]3C(=O)N(CCCO)[C@@H]4C2=O)cc1 (stereo partly specified)
3. CC(C)C(O)C1C=CC2C(=O)N(C)C(=O)C2N1N1CCCCC1 (stereo unspecified)
4. C=CCN1Cc2ccccc2C[C@@]2(COC(c3ccc(OCCCO)cc3)=N2)C1=O
5. NC(=O)[C@@]1(CCS(=O)(=O)c2ccccc2)N=C(c2ccc(OCCCO)cc2)O[C@H]1c1ccccc1
6. COCCCNC(=O)[C@@]1(C)c2ccccc2C(=O)N(Cc2ccccc2)[C@H]1c1ccc(CO)cc1
7. CC(C)C[C@@H]1NC(=O)[C@@H]2C[C@H](C(=O)NCCCCN(C)C)[C@H](c3ccc(O)cc3)N2C1=O
8. CN1C(=O)C2C=CC(C(O)c3ccccc3)N(NC(=O)OC(C)(C)C)C2C1=O (stereo unspecified)

1: 1.61; 2: -0.291; 3: 2.2; 4: 2.14; 5: 2.86; 6: 2.62; 7: 0.732; 8: 2.05

Would you mind listing composite z-score for each of the following compounds?
1. [N-]=[N+]=NCc1ccccc1[C@@H]1OC(c2ccc(OCCCO)cc2)=N[C@]1(Cc1ccccc1N=[N+]=[N-])C(N)=O
2. Cc1ccc(S[C@]2(C(=O)NCC(C)C)CC(=O)N(Cc3ccccc3)[C@@H]2c2ccc(CO)cc2)cc1
3. COc1ccc([Si](C)(C)[C@H]2[C@H](CCO)O[C@@]3(C(=O)N(Cc4ccccc4)c4ccc(N5C(=O)COc6ccccc65)cc43)[C@@H]2C)cc1

1: 2.8; 2: 1.78; 3: 0.69

---

# procedureDetails: inhibition of PAO1 biofilm formation – strain PAO1, LB-PBS medium, absorbance 600 nm, primary screen (AID 1176); further: test concentration not given here
# conditionDetails: P. aeruginosa PAO1 growth/biofilm, A600, 12 h; higher = more signal
Assign z-score to each entry below.
Answers are plain numbers.

These recorded examples may help you get a feel for the data.
>  <compound>
[N-]=[N+]=NCc1ccccc1[C@@H]1OC(c2ccc(OCCCO)cc2)=N[C@]1(Cc1ccccc1)C(=O)O

>  <measuredEndpoint>
z-score

>  <numericValue>
0.466

$$$$
>  <compound>
C=CC[C@@]1(C(=O)OC)N=C(c2ccc(OCCCO)cc2)O[C@@H]1c1ccccc1CN=[N+]=[N-]

>  <measuredEndpoint>
z-score

>  <numericValue>
-0.347

$$$$
>  <compound>
Cc1cc(C)c(C(O)C2C=CC3C(=O)NC(=O)C3N2Nc2ccccn2)c(C)c1 (centres undefined)

>  <measuredEndpoint>
z-score

>  <numericValue>
0.9

$$$$

Give z-score for O=C1C[C@@](C(=O)O)(c2ccc([N+](=O)[O-])cc2)[C@@H](c2ccc(CO)cc2I)N1C1CCCCC1 1.16

---

# targetOrTestSystem: Luciferin 4-monooxygenase (Photinus pyralis)
# procedureDetails: inhibition of purified Photinus pyralis luciferase – biochemical, luminescence, purified enzyme, 2006 set, primary screen (AID 1141);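 further: cell-free assay with purified firefly luciferase at 100 ng per well in PBS; test concentration not given here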
# conditionDetails: purified firefly luciferase, SteadyGlo luminescence, 30 min; higher = more signal, called active from +8 up or from −8 down
measuredEndpoint: z-score
One number for each entry.

# count of solved cases: 5
>  <compound>
COCCOC(=O)N1C(=O)[C@@]2(c3cc(C#CCC(C(=O)OC)C(=O)OC)ccc31)[C@H](c1ccccc1OCCO)N1[C@H](c3ccccc3)[C@H](c3ccccc3)OC(=O)[C@H]1[C@@H]2C(=O)Nc1nc2ccccc2s1

>  <numericValue>
-2.57

$$$$
>  <compound>
O=C(NCCN1CCOCC1)[C@@H]1c2ccccc2C(=O)N(Cc2cc(F)cc(C(F)(F)F)c2)[C@H]1c1ccc(CO)cc1

>  <numericValue>
-0.183

$$$$
>  <compound>
C[N+](C)(C)CCCC[C@@H]1NC(=O)[C@H]2C[C@@H](C(=O)O)[C@@H](c3cccc(OCCO)c3)N2C1=O

>  <numericValue>
-0.317

$$$$
>  <compound>
CCCC[C@@H]1C[C@H]1[C@@H](NC(=O)c1ccccc1)c1ccc(-c2ccccc2)cc1

>  <numericValue>
0.0434

$$$$
>  <compound>
O=S(=O)(NCCCO)c1ccc(Br)cc1

>  <numericValue>
-0.0622

$$$$

Kindly give each listed record's z-score.
1. CC1CC/C=C\[C@H]2OC34C=CCN(CCN5CCOCC5)C(=O)[C@H]3N(CCCCCO)C(=O)[C@@H]4C2C(=O)O1 (stereo not given in full)
2. CN(C)CCCCCCNC(=O)[C@@H]1C[C@@H]2C(=O)N[C@@H](Cc3ccccc3)C(=O)N2[C@@H]1c1cccc(OCCO)c1
3. O=C1O[C@H](c2ccccc2)[C@H](c2ccccc2)N2[C@H]1[C@@H](C(=O)NC[C@H](O)c1ccccc1)[C@]1(C(=O)Nc3ccc(C#CC4(O)CCCCCC4)cc31)[C@H]2c1ccccc1OCCO

1: -0.115; 2: -0.0196; 3: 0.361

Each of the following entries comes with a recorded value; kindly state z-score for each.
1. C=CC[C@@]1(C(=O)NCc2ccccc2)N=C(c2ccc(OCCCO)cc2)O[C@@H]1c1ccccc1CN=[N+]=[N-]
2. Cc1cccc(/C=C/C=O)c1
3. C=CCC(OC(C)=O)[C@@H]1[C@@H](N(Cc2cc3ccccc3o2)C(=O)c2cccc3ccccc23)c2cc(OCCCO)ccc2N1C(=O)Cc1ccc(OC)cc1 (stereo not given in full)
4. O=C1C[C@@](C(=O)O)(c2ccc([N+](=O)[O-])cc2)[C@@H](c2ccc(CO)cc2I)N1C1CCCCC1
5. COCCOC(=O)N1C(=O)[C@@]2(c3ccccc31)[C@H](c1ccc(O)cc1)N1[C@H](c3ccccc3)[C@H](c3ccccc3)OC(=O)[C@H]1[C@@H]2C(N)=O
6. CC(C)OC(=O)C1=CCC(c2cccc(Cl)c2)O1 (stereo not given)
7. CN1C(=O)C2C=CC(C(O)C(c3ccccc3)c3ccccc3)N(Nc3ccccc3)C2C1=O (stereo not given)

-0.876
-0.953
0.48
-0.411
-0.144
2.09
-0.0128

---

Please respond with reported composite z-score for every item in the list.
# Test system: Human papillomavirus type 1a E7 protein (residues 1-88)
# procedureDetails: HPV1a E7 small-molecule binders, primary screen, biochemical, small-molecule microarray, residues 1-88, 635 nm (AID 1129)
# conditionDetails: small-molecule microarray binding, fluorescence 635 nm; higher = more signal

Answered examples (3):
>  <compound>
O=C1OCCC=C[C@H]2OC34C=CCN(c5ccc6ccccc6c5)C(=O)[C@H]3N(CCCCCCO)C(=O)[C@@H]4C12 (some centres undefined)

>  <composite z-score>
-0.992

$$$$
>  <compound>
COc1ccc(C#Cc2ccc3c(c2)[C@]2(C(=O)N3)[C@H](C(=O)N3CCc4cc(OC)c(OC)cc4C3)[C@H]3C(=O)O[C@H](c4ccccc4)[C@H](c4ccccc4)N3[C@@H]2c2ccc(OCCO)cc2)cc1

>  <composite z-score>
1.2

$$$$
>  <compound>
CCCCCCC#C[Si](O[C@H](c1ccccc1)c1cn([C@H](C)c2ccccc2)nn1)(C(C)C)C(C)C

>  <composite z-score>
0.386

$$$$

Now let's try a different one.
Send back Human papillomavirus type 1a E7 protein (residues 1-88) composite z-score of CC(C)C(O)C1C=CC2C(=O)N(C)C(=O)C2N1N1CCCCC1 (centres undefined) only. 1.11
